- TARGET_DESC: hMC4R (Homo sapiens (Human), UniProt P32245)
- Sequence (P32245 whole entry): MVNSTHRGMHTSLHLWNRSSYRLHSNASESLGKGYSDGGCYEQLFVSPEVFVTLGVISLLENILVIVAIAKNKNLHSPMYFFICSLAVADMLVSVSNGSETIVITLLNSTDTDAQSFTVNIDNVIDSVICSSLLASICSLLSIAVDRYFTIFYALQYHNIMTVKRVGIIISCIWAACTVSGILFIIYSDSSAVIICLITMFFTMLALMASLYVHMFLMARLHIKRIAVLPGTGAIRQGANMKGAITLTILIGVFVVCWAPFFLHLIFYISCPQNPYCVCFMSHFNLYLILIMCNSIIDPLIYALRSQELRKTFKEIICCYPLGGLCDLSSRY
- TEST_METHOD_NOTES: LANCE cAMP assay, hMC4R PAM
- Assay type: cell-based
- CONDITIONS: HEK293 cells stably expressing the hMC4R; α-MSH at an EC20 dose
OBSERVABLE: hMC4R PAM LANCE pEC50 Mean
Lab note: write the figure by itself, no unit.

Known results for compounds:
| COMPOUND | hMC4R PAM LANCE pEC50 Mean |
| --- | --- |
| O=C(CN1CCC(C2CCCC2)CC1)Nc1c(C(=O)C2CC2)[nH]c2ccccc12 [Example 41] | 6.4 |
| COC(=O)c1[nH]c2ccc(C)cc2c1NC(=O)CN1CCC(Cc2ccccc2)CC1 [Example 75] | 5.9 |
| COC(=O)c1[nH]c2ccccc2c1NC(=O)CN1CCC(Oc2ccccn2)CC1 [Example 32] | 5.8 |
| CC1(C)CCCN(CC(=O)Nc2c(C(=O)C3CC3)[nH]c3ccncc23)C1 [Example 74] | 6.2 |
| CCOC(=O)c1[nH]c2ccncc2c1NC(=O)CN1CCCC(C)(C)C1 [Example 28] | 5.8 |

Below: the item to evaluate.
Q. Form entry - test system: hMC4R (Homo sapiens (Human), UniProt P32245); read-out: hMC4R PAM LANCE pEC50 Mean; compound: O=C(CN1CCN(Cc2ccccc2)CC1)Nc1c(C(=O)C2CC2)[nH]c2ccc(Br)cc12 [Example 14]
A. 6.2

* * *

- TARGET_DESC: hMC4R (Homo sapiens (Human), UniProt P32245)
- TEST_METHOD_NOTES: LANCE cAMP assay, hMC4R PAM
- Assay type: cell-based
- CONDITIONS: HEK293 cells stably expressing the hMC4R; α-MSH at an EC20 dose
Collected hMC4R PAM LANCE pEC50 Mean values appear next to each entry.
Lab note: write the figure by itself, no unit.

| MOLECULE | TARGET_DESC | hMC4R PAM LANCE pEC50 Mean |
| --- | --- | --- |
| O=C(CN1CCC(c2ccccc2)CC1)Nc1c(C(=O)C2CC2)[nH]c2ccc(Br)cc12 [Example 8] | hMC4R (Homo sapiens (Human), UniProt P32245) | 6.5 |
| CC(=O)c1[nH]c2ccc(Br)cc2c1NC(=O)CN1CCC(Cc2ccccc2)CC1 [Example 44] | hMC4R (Homo sapiens (Human), UniProt P32245) | 6.4 |
| CC(=O)c1[nH]c2ccccc2c1NC(=O)CN1CCC(c2ccccc2)CC1 [Example 19] | hMC4R (Homo sapiens (Human), UniProt P32245) | 6.2 |
| COC(=O)c1[nH]c2ccccc2c1NC(=O)CN1CCC(c2ccccc2)CC1 [Example 11] | hMC4R (Homo sapiens (Human), UniProt P32245) | 6.5 |
| COC(=O)c1[nH]c2ccc(Br)cc2c1NC(=O)CN1CCN(c2cccc(C)c2C)CC1 [Example 5] | hMC4R (Homo sapiens (Human), UniProt P32245) | 6.5 |

Q. Fill in: hMC4R PAM LANCE pEC50 Mean of O=C(CN1CCC2(CCCCC2)CC1)Nc1c(C(=O)C2CC2)[nH]c2ccccc12 [Example 65] is ___
A. 6.5

Q. Fill in: hMC4R PAM LANCE pEC50 Mean of CC1(C)CCCN(CC(=O)Nc2c(C(=O)C3CC3)[nH]c3ccc(S(C)(=O)=O)cc23)C1 [Example 48] is ___
A. 6.3

Q. Fill in: hMC4R PAM LANCE pEC50 Mean of CS(=O)(=O)c1ccc2[nH]c(C(=O)C3CC3)c(NC(=O)CN3CCC(C4CCCCC4)CC3)c2c1 [Example 58] is ___
A. 7.1

Q. Fill in: hMC4R PAM LANCE pEC50 Mean of COC(=O)c1[nH]c2ccc(Br)cc2c1NC(=O)CN1CCN(Cc2ccccc2)CC1 [Example 35] is ___
A. 5.8

Q. Fill in: hMC4R PAM LANCE pEC50 Mean of COC(=O)c1[nH]c2ccc(C)cc2c1NC(=O)CN1CCN(c2cccc(C)c2C)CC1 [Example 27] is ___
A. 5.9

Q. Fill in: hMC4R PAM LANCE pEC50 Mean of COC(=O)c1[nH]c2ccc(Br)cc2c1NC(=O)CN1CCC(Cc2ccccc2)CC1 [Example 22] is ___
A. 6.2

Q. Fill in: hMC4R PAM LANCE pEC50 Mean of COC(=O)c1[nH]c2cc(Br)ccc2c1NC(=O)CN1CCN(c2ccc(F)cc2)CC1 [Example 6] is ___
A. 6.4

Q. Fill in: hMC4R PAM LANCE pEC50 Mean of O=C(CN1CCC(c2ccccc2)CC1)Nc1c(C(=O)C2CC2)[nH]c2ccc(N3CCOCC3)cc12 [Example 69] is ___
A. 6.3

Q. Fill in: hMC4R PAM LANCE pEC50 Mean of CC(=O)c1[nH]c2ccccc2c1NC(=O)CN1CCN(Cc2ccccc2)CC1 [Example 33] is ___
A. 5.6

Q. Fill in: hMC4R PAM LANCE pEC50 Mean of CC(C(=O)Nc1c(C(=O)C2CC2)[nH]c2ccccc12)N1CCC(C2CCCC2)CC1 (stereo not drawn) [Example 71] is ___
A. 6.4

Q. Fill in: hMC4R PAM LANCE pEC50 Mean of O=C(CN1CCC(C2CCCC2)CC1)Nc1c(C(=O)C2CC2)[nH]c2ccncc12 [Example 59] is ___
A. 6.7

Q. Fill in: hMC4R PAM LANCE pEC50 Mean of COC(=O)c1[nH]c2ccccc2c1NC(=O)CN1CCC(Cc2ccccc2)CC1 [Example 24] is ___
A. 6

Q. Fill in: hMC4R PAM LANCE pEC50 Mean of CC1(C)CCCN(CC(=O)Nc2c(C(=O)C3CC3)[nH]c3ccccc23)C1 [Example 23] is ___
A. 6.1

Q. Fill in: hMC4R PAM LANCE pEC50 Mean of CC1COCCN1c1ccc2[nH]c(C(=O)C3CC3)c(NC(=O)CN3CCCC(C)(C)C3)c2c1 (stereo not drawn) [Example 76] is ___
A. 5.7

Q. Fill in: hMC4R PAM LANCE pEC50 Mean of CC(=O)c1[nH]c2ccc(Br)cc2c1NC(=O)CN1CCCC(C)(C)C1 [Example 51] is ___
A. 6

Q. Fill in: hMC4R PAM LANCE pEC50 Mean of O=C(CN1CCC(C2CCCCC2)CC1)Nc1c(C(=O)C2CC2)[nH]c2ccc(N3CCOCC3)cc12 [Example 66] is ___
A. 6.6

Q. Fill in: hMC4R PAM LANCE pEC50 Mean of O=C(CN1CCC(C2CCCCC2)CC1)Nc1c(C(=O)C2CC2)[nH]c2ccccc12 [Example 37] is ___
A. 6.6

Q. Fill in: hMC4R PAM LANCE pEC50 Mean of CC(C)(C)C1CCN(CC(=O)Nc2c(C(=O)C3CC3)[nH]c3ccccc23)CC1 [Example 1] is ___
A. 6.2

Q. Fill in: hMC4R PAM LANCE pEC50 Mean of COC(=O)c1[nH]c2ccc(Br)cc2c1NC(=O)CN1CCN(C2c3ccccc3-c3ccccc32)CC1 [Example 46] is ___
A. 6.3
